Tested on: K24384-001-R-PDC complex spheroid growth;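 also: percent of DMSO vehicle-treated spheroid viability set as 100%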
Test: Anticancer human tumor K24384-001-R-PDC patient-derived pancreatic adenocarcinoma cell line growth inhibition [AhR]
Settings: second compound 0.1 µM; first compound 1 µM; active compounds read low
Excerpt: Multicellular complex tumor spheroid response to aryl hydrocarbon receptor antagonists in combination with a variety of drugs and investigational agents in selected tumor cell lines […] Compounds. […] If the clinical Cmax for an agent had not been determined, the highest concentration tested was 10 microM (Table 1). […]
observed_property: viability, T/C (%)
Answers are plain numbers, in %.

Here are 5 molecules together with their reported answers.
* CC(C)c1c(-c2ccccc2)nc2c(C#N)c[nH]n2c1=O + Cc1cncc(-c2nc(NCCc3c[nH]c4ccccc34)c3ncn(C(C)C)c3n2)c1 | 102
* COc1ccc([C@@H](O)c2cc(-c3ncnc4cc(N5CCOCC5)ccc34)c(F)cc2Cl)nn1 + CC(CO)NC(=O)c1cc(-c2ccc(Cl)cc2)nn(-c2cnn(C)c2)c1=O | 75.7
* COc1cc(C2c3cc4c(cc3C(OC3OC5COC(C)OC5C(O)C3O)C3COC(=O)C23)OCO4)cc(OC)c1O (stereo unspecified) + Cc1cncc(-c2nc(NCCc3c[nH]c4ccccc34)c3ncn(C(C)C)c3n2)c1 | 41.3
* Nc1ccn(C2OC(CO)C(O)C2(F)F)c(=O)n1 (stereo unspecified) + Cc1ccccc1N=Nc1ccc(NC(=O)c2ccnn2C)c(C)c1 | 29.9
* O=C(C=Cc1cccc(S(=O)(=O)Nc2ccccc2)c1)NO + Cc1cncc(-c2nc(NCCc3c[nH]c4ccccc34)c3ncn(C(C)C)c3n2)c1 | 74.5

Here is another molecule to look at.
Please give the documented viability, T/C of Nc1ccccc1NC(=O)c1ccc(CNC(=O)OCc2cccnc2)cc1 + Cc1ccccc1N=Nc1ccc(NC(=O)c2ccnn2C)c(C)c1
63.6
